assay: Confirmation of Inhibitors Targeting the Menin-MLL Interaction in MLL Related Leukemias: Competition With Texas Red Labeled MLL-derived Mutant Peptide; details: fluorescence polarization, Texas Red MLL peptide displacement; series mostly up to 94.6 µM
Results filed as inconclusive are left out. The source made the active and inactive calls. The call rests on the fitted dose curve; in most records, active means well fitted inhibition curve with a large enough effect in the polarisation, with a control signal flat (not every such curve was filed as active); inconclusive means small, poorly fitted or top-dose-only effect, or effect the other way, or a change in a side signal; inactive means no such curve, though single readings can be large or run the other way; the % refers to the polarisation.
Give one outcome, nothing more. List: TRUE (active), FALSE (inactive)

Example entries and their recorded answers appear below.
Cc1c(C(=O)OCC(=O)Nc2ccc(S(N)(=O)=O)cc2)oc2c1ccc1ccccc12    FALSE
CCC[n+]1c2ccccc2cc2ccccc21    TRUE
O=C(c1cc(F)c(F)cc1Cl)N1CCN(c2ncccn2)CC1    FALSE
COc1ccc(CC(=O)Nc2ccc(-c3nnc(-c4ccccc4)o3)cc2)cc1    FALSE
CN1[C@H](CC(=O)c2ccccc2)CCC[C@H]1C[C@@H](O)c1ccccc1    FALSE
O=C(O)CCC(=O)Nc1ccc(SSc2ccc(NC(=O)CCC(=O)O)cc2)cc1    FALSE
CCc1cc2c(N3CCN(c4nnc(CC)s4)CC3)ncnc2s1    TRUE
O=C(Nc1nnc(-c2ccccc2SCc2ccccc2)s1)Nc1ccccc1F    TRUE

# fetch the recorded call for CN(C)/C=C(/C(=O)c1ccc(Cl)cc1)S(=O)(=O)c1ccc(Cl)cc1 here FALSE

Record lookup: outcome of this test for CCCNC(=O)c1ccc2c(=O)c(O)c(C)[nH]c2c1 ? FALSE

# outcome recorded in this test, key = COC(=O)c1cc(CNC(=O)CCCSc2ccccc2)ccc1OC FALSE

Hey, just so you know, these numbers are from PubChem BioAssay AID2782.
